# ASSAY TARGET: T1, human CLDN6, endogenously expressed on cancer cell lines (human, UniProt P56747 1-220)
# T1 construct: also called Endogenous CLDN6+; CLDN6 on ARK2, OVCA429, UMUC4 cells
# T1 sequence: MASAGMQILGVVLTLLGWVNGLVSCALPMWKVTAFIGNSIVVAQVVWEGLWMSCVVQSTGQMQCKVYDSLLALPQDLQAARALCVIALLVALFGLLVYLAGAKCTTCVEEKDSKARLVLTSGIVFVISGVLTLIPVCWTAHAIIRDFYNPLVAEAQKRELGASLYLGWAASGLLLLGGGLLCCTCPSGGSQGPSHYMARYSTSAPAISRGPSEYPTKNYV
# ASSAY NOTES: FACS, OVCA429 cells, 1.5 ug Ab
OBSERVATION TYPE: FACS signal
Response field accepts a number only; no unit should be typed.

As a guide, the following entries are already answered.
AB1-3 (antibody, V domains shown, Humanized; also called humanized AB 1-3) VH: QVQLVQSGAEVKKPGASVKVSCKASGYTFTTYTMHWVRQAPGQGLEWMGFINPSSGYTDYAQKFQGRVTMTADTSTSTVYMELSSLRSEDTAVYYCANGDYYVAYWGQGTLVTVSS VL: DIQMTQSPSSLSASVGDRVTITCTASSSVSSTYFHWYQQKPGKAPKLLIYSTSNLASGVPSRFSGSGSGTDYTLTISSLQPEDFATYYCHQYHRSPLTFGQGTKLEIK ... 27500
AB1-4 (antibody, V domains shown, Humanized; also called humanized AB 1-4) VH: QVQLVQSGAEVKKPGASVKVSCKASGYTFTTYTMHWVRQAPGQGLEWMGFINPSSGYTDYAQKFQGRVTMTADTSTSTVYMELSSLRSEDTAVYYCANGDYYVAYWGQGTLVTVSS VL: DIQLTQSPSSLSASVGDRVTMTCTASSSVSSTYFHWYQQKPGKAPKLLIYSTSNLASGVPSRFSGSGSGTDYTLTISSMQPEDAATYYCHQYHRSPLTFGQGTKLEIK ... 34600

Exercise: May I ask what FACS signal has been recorded for AB1-5 (antibody, V domains shown, Humanized; also called humanized AB 1-5) VH: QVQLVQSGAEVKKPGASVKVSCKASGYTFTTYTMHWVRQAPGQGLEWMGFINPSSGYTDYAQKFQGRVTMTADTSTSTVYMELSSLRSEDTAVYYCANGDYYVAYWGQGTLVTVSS VL: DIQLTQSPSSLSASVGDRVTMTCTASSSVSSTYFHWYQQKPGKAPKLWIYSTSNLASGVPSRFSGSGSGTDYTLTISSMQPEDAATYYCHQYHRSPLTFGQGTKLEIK ?
Solution: 54300
